Tested on: PC-3
protocol-notes: Antiproliferative activity measured against PC-3 human prostate adenocarcinoma
Assay type: functional, cell-based
conditions-used: PC-3, Prostate gland
measured-parameter: log10 of IC50 (log10 of the value in nM)

compound	log10 of IC50
COc1cccc2c1C(=O)c1c(O)c3c(c(O)c1C2=O)C[C@@](O)(C(=O)CO)C[C@@H]3O[C@H]1C[C@H](N)[C@H](O)[C@H](C)O1	2.59
CCC1(O)CC(=O)OCc2c1cc1n(c2=O)Cc2cc3cc(F)c(F)cc3nc2-1 (configuration not stated)	-3.00
COc1cc([C@@H]2c3cc4c(cc3[C@@H](O[C@@H]3O[C@@H]5CO[C@@H](C)O[C@H]5[C@H](O)[C@H]3O)[C@H]3COC(=O)[C@H]23)OCO4)cc(OC)c1O [ETOPOSIDE]	3.36
CCC1(O)CC(=O)OCc2c1cc1n(c2=O)Cc2cc3cc(Cl)ccc3nc2-1 (configuration not stated)	1.26
CC[C@@]1(O)C(=O)OCc2c1cc1n(c2=O)Cc2cc3c(CN(C)C)c(O)ccc3nc2-1	2.20

====

System: A-427
protocol-notes: Antiproliferative activity measured against A427 human lung carcinoma
Format: functional, cell-based
pIC50: −log10 of the molar value.
Threshold rule: pIC50 greater than or equal to 9 is yes (1); below that, no (0).

compound	class
CCC1(O)CC(=O)OCc2c1cc1n(c2=O)Cc2cc3cc(F)ccc3nc2-1 (stereo unspecified)	no (0)
CCC1(O)CC(=O)OCc2c1cc1n(c2=O)Cc2cc3cc(Cl)ccc3nc2-1 (stereo unspecified)	yes (1)
CC[C@@]1(O)C(=O)OCc2c1cc1n(c2=O)Cc2cc3c(CN(C)C)c(O)ccc3nc2-1	no (0)
CCC1(O)CC(=O)OCc2c1cc1n(c2=O)Cc2cc3cc(F)c(F)cc3nc2-1 (stereo unspecified)	yes (1)
CC[C@@]1(O)C(=O)OCc2c1cc1n(c2=O)Cc2cc3ccccc3nc2-1	no (0)
CCC1(O)CC(=O)OCc2c1cc1n(c2=O)Cc2cc3cc(OC)c(F)cc3nc2-1 (stereo unspecified)	yes (1)
CCC1(O)CC(=O)OCc2c1cc1n(c2=O)Cc2cc3cc(C)c(Cl)cc3nc2-1 (stereo unspecified)	yes (1)
CCC1(O)CC(=O)OCc2c1cc1n(c2=O)Cc2cc3ccccc3nc2-1 (stereo unspecified)	no (0)
CCC1(O)CC(=O)OCc2c1cc1n(c2=O)Cc2cc3cc(C)c(F)cc3nc2-1 (stereo unspecified)	yes (1)
CCC1(O)CC(=O)OCc2c1cc1n(c2=O)Cc2cc3cc(F)c(Cl)cc3nc2-1 (stereo unspecified)	yes (1)

====

Listed below: pIC50 values for each entry.
Test system: K562
protocol-notes: Antiproliferative activity measured against K562adr leukemia cells.
Format: functional, cell-based
conditions-used: Homo sapiens
pIC50: −log10 of the molar value.
measured-parameter: pIC50

compound	measured-parameter	assay-value
CCC1(O)CC(=O)OCc2c1cc1n(c2=O)Cc2cc3cc(F)c(Cl)cc3nc2-1 (stereo not drawn)	pIC50	7.70
COc1cccc2c1C(=O)c1c(O)c3c(c(O)c1C2=O)C[C@@](O)(C(=O)CO)C[C@@H]3O[C@H]1C[C@H](N)[C@H](O)[C@H](C)O1	pIC50	4.82
CCC1(O)CC(=O)OCc2c1cc1n(c2=O)Cc2cc3cc(F)ccc3nc2-1 (stereo not drawn)	pIC50	7.20
CCC1(O)CC(=O)OCc2c1cc1n(c2=O)Cc2cc3cc(C)c(Cl)cc3nc2-1 (stereo not drawn)	pIC50	8.54
CCC1(O)CC(=O)OCc2c1cc1n(c2=O)Cc2cc3cc(Cl)ccc3nc2-1 (stereo not drawn)	pIC50	8.59
CCC1(O)CC(=O)OCc2c1cc1n(c2=O)Cc2cc3cc(C)c(F)cc3nc2-1 (stereo not drawn)	pIC50	7.85
CC[C@@]1(O)C(=O)OCc2c1cc1n(c2=O)Cc2cc3c(CN(C)C)c(O)ccc3nc2-1	pIC50	5.96
CCC1(O)CC(=O)OCc2c1cc1n(c2=O)Cc2cc3cc(OC)c(F)cc3nc2-1 (stereo not drawn)	pIC50	7.74
CCC1(O)CC(=O)OCc2c1cc1n(c2=O)Cc2cc3cc4c(cc3nc2-1)OCO4 (stereo not drawn)	pIC50	7.43
CCC1(O)CC(=O)OCc2c1cc1n(c2=O)Cc2cc3ccccc3nc2-1 (stereo not drawn)	pIC50	7.33
CCC1(O)CC(=O)OCc2c1cc1n(c2=O)Cc2cc3cc(F)c(F)cc3nc2-1 (stereo not drawn)	pIC50	7.18
CC[C@@]1(O)C(=O)OCc2c1cc1n(c2=O)Cc2cc3ccccc3nc2-1	pIC50	7.24
CCc1c2c(nc3ccccc13)-c1cc3c(c(=O)n1C2)COC(=O)CC3(O)CC (stereo not drawn)	pIC50	7.48
